# target_or_test_system: MDM2 (Homo sapiens)
# Sequence (Q00987 whole entry): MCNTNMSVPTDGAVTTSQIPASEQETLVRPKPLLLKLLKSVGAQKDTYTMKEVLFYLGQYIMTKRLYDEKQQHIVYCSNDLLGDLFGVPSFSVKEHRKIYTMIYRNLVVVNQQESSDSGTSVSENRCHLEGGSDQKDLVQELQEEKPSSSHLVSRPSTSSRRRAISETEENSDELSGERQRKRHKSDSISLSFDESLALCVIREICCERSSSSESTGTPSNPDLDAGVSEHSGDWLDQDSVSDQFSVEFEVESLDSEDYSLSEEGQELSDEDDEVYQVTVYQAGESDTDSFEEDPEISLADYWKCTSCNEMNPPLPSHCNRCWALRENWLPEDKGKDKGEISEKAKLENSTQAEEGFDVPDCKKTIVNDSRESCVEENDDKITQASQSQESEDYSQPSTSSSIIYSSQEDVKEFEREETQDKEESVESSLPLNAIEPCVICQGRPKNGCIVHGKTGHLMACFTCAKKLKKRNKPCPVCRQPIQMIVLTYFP
# assay_protocol: MDM2 binding screen of Libraries 3 and 4: displacement of fluorescent probe F-M8 at 750 nM macrocycle
# setup_conditions: Panel b, Library 3: 63 scaffolds combinatorially acylated with 15 carboxylic acids at 30 picomole scale; displacement of fluorescent peptide probe; macrocycle 750 nM
Catalogue of fraction of fluorescent probe displaced values
observation_type: fraction of fluorescent probe displaced

[
  {
    "compound": "O=C(CCS(=O)(=O)c1ccccc1)NC[C@@H]1NC(=O)C2(CC2)CNC(=O)CCSSCCNC(=O)[C@H](Cc2cccc3ccccc23)NC1=O [X-Amcp-Dap-1-NaI + Acid 114]",
    "observation_type": "fraction of fluorescent probe displaced",
    "test_result": -0.00533
  },
  {
    "compound": "O=C(/C=C/c1ccc(OCc2ccccc2)cc1)NC[C@H]1NC(=O)[C@H]2CCCN(C2)C(=O)CCSSCCNC(=O)[C@H](Cc2ccc3ccccc3c2)NC1=O [X-Nip-D-Dap-2-Nal + Acid 110]",
    "observation_type": "fraction of fluorescent probe displaced",
    "test_result": 0.008
  },
  {
    "compound": "Cn1cc(C[C@@H]2NC(=O)[C@H](CNC(=O)c3ccc(Cl)cc3)NC(=O)[C@@H]3CN(CCO3)C(=O)CCSSCCNC2=O)c2ccccc21 [X-Cop-Dap-Me-Trp + Acid 25]",
    "observation_type": "fraction of fluorescent probe displaced",
    "test_result": 0.015
  },
  {
    "compound": "CC(Oc1cccc(Cl)c1)C(=O)NCC1NC(=O)C2(CC2)CNC(=O)CCSSCCNC(=O)C(Cc2c[nH]c3cc(Cl)ccc23)NC1=O (mixture of isomers) [X-Amcp-Dap-Cl-Trp + Acid 113]",
    "observation_type": "fraction of fluorescent probe displaced",
    "test_result": -0.019
  },
  {
    "compound": "CC(Oc1cccc(Cl)c1)C(=O)NCCN1CC(=O)NC(Cc2c[nH]c3cc(Cl)ccc23)C(=O)NCCSSCCC(=O)NCC2(CC2)C1=O (mixture of isomers) [X-Amcp-N-Aeg-Cl-Trp + Acid 113]",
    "observation_type": "fraction of fluorescent probe displaced",
    "test_result": -0.019
  },
  {
    "compound": "O=C(/C=C/c1ccc(Cl)cc1)NC[C@H]1NC(=O)[C@@H]2CN(CCO2)C(=O)CCSSCCNC(=O)[C@H](Cc2cccc3ccccc23)NC1=O [X-Cop-D-Dap-1-NaI + Acid 108]",
    "observation_type": "fraction of fluorescent probe displaced",
    "test_result": 0.028
  },
  {
    "compound": "CN1C(=O)[C@H](CNC(=O)C2COc3ccccc3O2)NC(=O)[C@H]2CCCN(C2)C(=O)CCSSCCNC(=O)[C@@H]1Cc1c[nH]c2ccccc12 (stereo partly drawn) [X-Nip-Dap-NMe-Trp + Acid 115]",
    "observation_type": "fraction of fluorescent probe displaced",
    "test_result": -0.012
  },
  {
    "compound": "O=C1CCSSCCNC(=O)[C@H](Cc2cccc3ccccc23)NC(=O)[C@@H](CNC(=O)c2ccc(Cl)s2)NC(=O)C2(CC2)CN1 [X-Amcp-D-Dap-1-NaI + Acid 14]",
    "observation_type": "fraction of fluorescent probe displaced",
    "test_result": 0.008
  },
  {
    "compound": "O=C1CCSSCCNC(=O)[C@H](Cc2c[nH]c3ccccc23)NC(=O)[C@@H](CNC(=O)C2CC2c2ccccc2)NC(=O)C2(CC2)CN1 (stereo partly drawn) [X-Amcp-D-Dap-Trp + Acid 105]",
    "observation_type": "fraction of fluorescent probe displaced",
    "test_result": -0.015
  },
  {
    "compound": "CN1C(=O)[C@H](CNC(=O)CCS(=O)(=O)c2ccccc2)NC(=O)C2(CC2)CNC(=O)CCSSCCNC(=O)[C@@H]1Cc1c[nH]c2ccccc12 [X-Amcp-Dap-NMe-Trp + Acid 114]",
    "observation_type": "fraction of fluorescent probe displaced",
    "test_result": 0.055
  }
]

These data points were gathered from paper PMC9250534.
